Experiment: Solubility of Compound 1.HCl measured gravimetrically in solvents/solvent mixtures
Assay type: physicochemical
Conditions: organic solvent or mixture, thermodynamic from solid; Acetone, 15° C., slurried 48 h, gravimetric
endpoint_name: solubility at 48 h (µg/mL)
Give just the number in µg/mL; leave the unit off.

Return reported solubility at 48 h; argument: C[C@@H](NC(=O)N1C(=O)[C@H](Cc2ccnc(N)c2)[C@H]1C(=O)O)C1CCCCC1.Cl [Compound 1.HCl]
2200

* * *

Test: Solubility of Compound 1.HCl measured gravimetrically in solvents/solvent mixtures
Assay type: physicochemical
Conditions: organic solvent or mixture, thermodynamic from solid; TBME, 45° C., slurried 48 h, gravimetric
endpoint_name: solubility at 48 h (µg/mL)
Give just the number in µg/mL; leave the unit off.

Return reported solubility at 48 h; argument: C[C@@H](NC(=O)N1C(=O)[C@H](Cc2ccnc(N)c2)[C@H]1C(=O)O)C1CCCCC1.Cl [Compound 1.HCl]
4100

Sourced from patent US20210253550A1
